Target: MNK2a (Homo sapiens, UniProt Q9HBH9)
Sequence (Q9HBH9 whole entry): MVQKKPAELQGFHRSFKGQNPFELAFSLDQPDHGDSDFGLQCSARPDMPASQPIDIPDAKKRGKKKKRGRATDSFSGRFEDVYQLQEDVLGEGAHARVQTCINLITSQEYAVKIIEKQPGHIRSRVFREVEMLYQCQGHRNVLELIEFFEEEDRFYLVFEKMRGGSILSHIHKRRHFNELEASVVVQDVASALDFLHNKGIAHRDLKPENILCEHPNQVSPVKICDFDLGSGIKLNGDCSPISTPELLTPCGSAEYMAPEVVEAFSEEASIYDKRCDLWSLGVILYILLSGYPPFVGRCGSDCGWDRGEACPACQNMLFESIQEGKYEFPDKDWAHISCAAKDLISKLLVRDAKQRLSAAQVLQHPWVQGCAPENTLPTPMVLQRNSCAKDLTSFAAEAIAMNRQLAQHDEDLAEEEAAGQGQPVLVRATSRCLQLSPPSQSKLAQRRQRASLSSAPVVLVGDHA
Assay: MNK2a in vitro kinase assay (assay 1), ADP-Glo
Conditions: preactivated GST-MNK2a, 20 μM ATP, read-out: MNK2 IC50
metric name: IC50 (nM)

Entry Cc1cc(N=S(C)(C)=O)cc2ncnc(Nc3ccc(F)cc3O[C@H]3C[C@H](N)C3)c12 — recorded IC50 = 2

Entry Cc1cc(N=S2(=O)CCCC2)cc2ncnc(Nc3ccc(F)cc3O[C@@H]3CO[C@H]4[C@@H]3OC[C@H]4O)c12 — recorded IC50 = 2

I. Cc1cc(N=S2(=O)CCCC2)cc2ncnc(Nc3ccc(F)cc3O[C@@H]3CCCN(CCO)C3)c12
II. CS(C)(=O)=Nc1cc(Br)c2c(Nc3ccc(F)cc3O[C@H]3CCOC3)ncnc2c1
I need your help: which of the pair I , II has higher IC50? Return value: the label identifying the chosen record.
I
(I: 2 nM, II: 1 nM)

----------
Biological target: MNK1a (Homo sapiens)
Sequence (Q9BUB5 1-424 isoform Q9BUB5-2): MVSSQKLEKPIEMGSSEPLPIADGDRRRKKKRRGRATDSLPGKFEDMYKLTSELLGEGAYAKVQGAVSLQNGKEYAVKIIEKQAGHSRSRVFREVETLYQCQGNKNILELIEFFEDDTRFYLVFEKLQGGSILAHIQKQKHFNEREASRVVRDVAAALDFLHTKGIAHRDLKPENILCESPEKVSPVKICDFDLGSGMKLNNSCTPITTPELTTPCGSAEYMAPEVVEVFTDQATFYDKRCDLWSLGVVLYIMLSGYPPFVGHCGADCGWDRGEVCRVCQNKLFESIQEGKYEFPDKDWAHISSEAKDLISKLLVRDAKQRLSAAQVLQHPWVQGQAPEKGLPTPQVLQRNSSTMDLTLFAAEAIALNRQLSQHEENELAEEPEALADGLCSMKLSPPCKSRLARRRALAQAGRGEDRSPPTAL
Experiment: MNK1 in vitro kinase assay (assay 2), Z'-LYTE
Settings: pre-activated GST-MNK1a
Text: B. MNK1 In Vitro Kinase Assay (Assay 2) MNK1 Data can be obtained from the MNK1 Z′-LYTE® assay. The MNK1 Z′-LYTE® screening protocol and assay conditions are also described on www.invitrogen.com. The assay is described as follows: The Z′-LYTE® biochemical assay employs a fluorescence-based, coupled-enzyme format and is based on the differential sensitivity of phosphorylated and non-phosphorylated peptides to proteolytic cleavage. […] 9. Read on fluorescence plate reader and analyze the data […]
metric name: IC50 (nM)

Entry COc1cc(N=S(C)(C)=O)cc2ncnc(Nc3ccc(F)cc3O[C@@H]3CO[C@H]4[C@@H]3OC[C@H]4OC)c12 — recorded IC50 = 11

Entry Cc1cc(N=S(C)(=O)C2CC2)cc2ncnc(Nc3ccc(F)cc3O[C@H]3CCOC3)c12 (some centres unmarked) — recorded IC50 = 82

Entry CO[C@@H]1CO[C@H]2[C@@H]1OC[C@H]2Oc1cc(F)ccc1Nc1ncnc2cc(N=S(C)(C)=O)cc(OCC(F)F)c12 — recorded IC50 = 43

Entry CS(C)(=O)=Nc1cc(C(F)F)c2c(Nc3ccc(F)cc3O[C@H]3CCOC3)ncnc2c1 — recorded IC50 = 21

Entry CS(C)(=O)=Nc1cc(Cl)c2c(Nc3ccc(F)cc3O[C@@H]3CO[C@@H]4CCO[C@@H]43)ncnc2c1 — recorded IC50 = 25

I. Cc1cc(N=S(C)(=O)c2cccnc2)cc2ncnc(Nc3ccc(F)cc3O[C@H]3CCOC3)c12 (some centres unmarked)
II. Cc1cc(N=S(C)(C)=O)cc2ncnc(Nc3cccnc3O[C@H]3CCCNC3)c12
I need your help: which of the pair I , II has higher IC50? Return value: the label identifying the chosen record.
I

I. CO[C@@H]1CO[C@H]2[C@@H]1OC[C@H]2Oc1cc(F)ccc1Nc1ncnc2cc(N=S(C)(C)=O)cc(F)c12
II. CS(C)(=O)=Nc1cc(Cl)c2c(Nc3ccc(F)cc3O[C@H]3CC[C@H](O)CC3)ncnc2c1
III. Cc1cc(N=S(C)(C)=O)cc2ncnc(Nc3ccc(F)cc3OC3(C)CCOC3)c12 (centres unmarked)
Order the records so the highest IC50 appears first and the lowest last. Output spec: labels arranged per the requested ranking.
III, I, II
(III: 149 nM, I: 57 nM, II: 39 nM)

I. CO[C@H]1CC[C@H](Oc2cc(F)ccc2Nc2ncnc3cc(N=S(C)(C)=O)cc(C)c23)CC1
II. Cc1cc(N=S(C)(C)=O)cc2ncnc(Nc3ccc(F)cc3OC3(C)CC3C)c12 (centres unmarked)
III. CCOc1cc(N=S(C)(C)=O)cc2ncnc(Nc3ccc(F)cc3O[C@@H]3CO[C@H]4[C@@H]3OC[C@H]4OC)c12
IV. Cc1cc(N=S(C)(C)=O)cc2ncnc(Nc3ccc(F)cc3O[C@@H]3CCC[C@H]3O)c12
Order the records so the highest IC50 appears first and the lowest last. Output spec: labels arranged per the requested ranking.
II, I, IV, III
(II: 110 nM, I: 75 nM, IV: 25 nM, III: 14 nM)
